Consider the following compounds and their measured viability, T/C readings.
- Tested on: 898857-211-R-J1-PDC complex spheroids, growth % test/control
- ASSAY PROCEDURE: Anticancer human tumor 898857-211-R-J1-PDC patient-derived melanoma cell line growth inhibition [RAS]
- RECORDED CONDITIONS: second compound 0.1 µM; first compound 10 µM; hits give low values
MEASURED METRIC: viability, T/C (%)

| COMPOUND | TARGET OR TEST SYSTEM | READOUT VALUE |
| --- | --- | --- |
| CC(=O)OC12COC1CC(O)C1(C)C(=O)C(O)C3=C(C)C(OC(=O)C(O)C(NC(=O)OC(C)(C)C)c4ccccc4)CC(O)(C(OC(=O)c4ccccc4)C21)C3(C)C (stereo unspecified) + C=CC(=O)N1CCN(c2nc(OCC3CCCN3C)nc3c(F)c(-c4nc(N)cc(C)c4C(F)(F)F)c(Cl)cc23)C(C)C1 | 898857-211-R-J1-PDC complex spheroids, growth % test/control | 19.9 |
| CC(Nc1ccc2c(c1)OCCn1cc(N3C(=O)OCC3C(F)F)nc1-2)C(N)=O (stereo unspecified) + C=CC(=O)N1CCN(c2nc(OCC3CCCN3C)nc3c(F)c(-c4nc(N)cc(C)c4C(F)(F)F)c(Cl)cc23)C(C)C1 | 898857-211-R-J1-PDC complex spheroids, growth % test/control | 74.5 |
| CC(=O)OC12COC1CC(O)C1(C)C(=O)C(O)C3=C(C)C(OC(=O)C(O)C(NC(=O)OC(C)(C)C)c4ccccc4)CC(O)(C(OC(=O)c4ccccc4)C21)C3(C)C (stereo unspecified) + C#Cc1c(F)ccc2cc(O)cc(-c3ncc4c(N5CC6CCC(C5)N6)nc(OCC56CCCN5CC(F)C6)nc4c3F)c12 | 898857-211-R-J1-PDC complex spheroids, growth % test/control | 21.1 |
| C[C@@H](NC(=O)c1ncnc(N)c1Cl)c1ncc(C(=O)Nc2cc(C(F)(F)F)c(Cl)cn2)s1 + C=CC(=O)N1CCN(c2nc(OCC3CCCN3C)nc3c(F)c(-c4nc(N)cc(C)c4C(F)(F)F)c(Cl)cc23)C(C)C1 | 898857-211-R-J1-PDC complex spheroids, growth % test/control | 36.8 |
| CC(C)NCC(C(=O)N1CCN(c2ncnc3c2C(C)CC3O)CC1)c1ccc(Cl)cc1 (stereo unspecified) + C#Cc1c(F)ccc2cc(O)cc(-c3ncc4c(N5CC6CCC(C5)N6)nc(OCC56CCCN5CC(F)C6)nc4c3F)c12 | 898857-211-R-J1-PDC complex spheroids, growth % test/control | 61.4 |
| CC(C)NCC(C(=O)N1CCN(c2ncnc3c2C(C)CC3O)CC1)c1ccc(Cl)cc1 (stereo unspecified) + C=CC(=O)N1CCN(c2nc(OCC3CCCN3C)nc3c(F)c(-c4nc(N)cc(C)c4C(F)(F)F)c(Cl)cc23)C(C)C1 | 898857-211-R-J1-PDC complex spheroids, growth % test/control | 66.7 |
| Cc1nc(N2CCC3(CC2)COC(C)C3N)c(CO)nc1Sc1ccnc(N)c1Cl (stereo unspecified) + C=CC(=O)N1CCN(c2nc(OCC3CCCN3C)nc3c(F)c(-c4nc(N)cc(C)c4C(F)(F)F)c(Cl)cc23)C(C)C1 | 898857-211-R-J1-PDC complex spheroids, growth % test/control | 91.7 |
| C[C@@H](NC(=O)c1ncnc(N)c1Cl)c1ncc(C(=O)Nc2cc(C(F)(F)F)c(Cl)cn2)s1 + C#Cc1c(F)ccc2cc(O)cc(-c3ncc4c(N5CC6CCC(C5)N6)nc(OCC56CCCN5CC(F)C6)nc4c3F)c12 | 898857-211-R-J1-PDC complex spheroids, growth % test/control | 37.7 |
| NC1c2ccccc2OC12CCN(c1cnc3c(N4CCCc5ncccc54)n[nH]c3n1)CC2 (stereo unspecified) + C#Cc1c(F)ccc2cc(O)cc(-c3ncc4c(N5CC6CCC(C5)N6)nc(OCC56CCCN5CC(F)C6)nc4c3F)c12 | 898857-211-R-J1-PDC complex spheroids, growth % test/control | 74.4 |
| CCC(CC)c1cc(NC2CCC(N)C2)n2nccc2n1 (stereo unspecified) + C=CC(=O)N1CCN(c2nc(OCC3CCCN3C)nc3c(F)c(-c4nc(N)cc(C)c4C(F)(F)F)c(Cl)cc23)C(C)C1 | 898857-211-R-J1-PDC complex spheroids, growth % test/control | 0.21 |
| CC(Nc1ccc2c(c1)OCCn1cc(N3C(=O)OCC3C(F)F)nc1-2)C(N)=O (stereo unspecified) + C#Cc1c(F)ccc2cc(O)cc(-c3ncc4c(N5CC6CCC(C5)N6)nc(OCC56CCCN5CC(F)C6)nc4c3F)c12 | 898857-211-R-J1-PDC complex spheroids, growth % test/control | 69.9 |
| CC1(O)CCCC1n1c(=O)c(C(F)F)cc2cnc(NC3CCN(S(C)(=O)=O)CC3)nc21 (stereo unspecified) + C#Cc1c(F)ccc2cc(O)cc(-c3ncc4c(N5CC6CCC(C5)N6)nc(OCC56CCCN5CC(F)C6)nc4c3F)c12 | 898857-211-R-J1-PDC complex spheroids, growth % test/control | 23.4 |
| CC1(O)CCCC1n1c(=O)c(C(F)F)cc2cnc(NC3CCN(S(C)(=O)=O)CC3)nc21 (stereo unspecified) + C=CC(=O)N1CCN(c2nc(OCC3CCCN3C)nc3c(F)c(-c4nc(N)cc(C)c4C(F)(F)F)c(Cl)cc23)C(C)C1 | 898857-211-R-J1-PDC complex spheroids, growth % test/control | 18.6 |
| CCC(CC)c1cc(NC2CCC(N)C2)n2nccc2n1 (stereo unspecified) + C#Cc1c(F)ccc2cc(O)cc(-c3ncc4c(N5CC6CCC(C5)N6)nc(OCC56CCCN5CC(F)C6)nc4c3F)c12 | 898857-211-R-J1-PDC complex spheroids, growth % test/control | 0.33 |
| Cc1nc(N2CCC3(CC2)COC(C)C3N)c(CO)nc1Sc1ccnc(N)c1Cl (stereo unspecified) + C#Cc1c(F)ccc2cc(O)cc(-c3ncc4c(N5CC6CCC(C5)N6)nc(OCC56CCCN5CC(F)C6)nc4c3F)c12 | 898857-211-R-J1-PDC complex spheroids, growth % test/control | 86.3 |
| NC1c2ccccc2OC12CCN(c1cnc3c(N4CCCc5ncccc54)n[nH]c3n1)CC2 (stereo unspecified) + C=CC(=O)N1CCN(c2nc(OCC3CCCN3C)nc3c(F)c(-c4nc(N)cc(C)c4C(F)(F)F)c(Cl)cc23)C(C)C1 | 898857-211-R-J1-PDC complex spheroids, growth % test/control | 74.1 |

* * *

- Tested on: 898857-211-R-J1-PDC complex spheroids, growth % test/control
- ASSAY PROCEDURE: Anticancer human tumor 898857-211-R-J1-PDC cell line growth inhibition [RAS];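 also: spheroids exposed to compound for seven days before readout; 100% = DMSO vehicle control wells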
- RECORDED CONDITIONS: second compound 0.003 µM; first compound 0.1 µM; hits give low values
Consider the following molecules and their measured viability, T/C readings.

| MOLECULE | viability, T/C |
| --- | --- |
| Cc1nc(N2CCC3(CC2)COC(C)C3N)c(CO)nc1Sc1ccnc(N)c1Cl (centres undefined) + CCn1c(-c2cccnc2C(C)OC)c2c3cc(ccc31)N1CCOC(CC(NC(=O)C(C(C)C)N(C)C(=O)C3(F)CCN(C(=O)C#CC(C)(C)N(C)C)CC3)C(=O)N3CCCC(N3)C(=O)OCC(C)(C)C2)C1 | 98.5% |
| C=CC(=O)N1CCN(c2nc(OCC3CCCN3C)nc3c(F)c(-c4nc(N)cc(C)c4C(F)(F)F)c(Cl)cc23)C(C)C1 (centres undefined) + CCn1c(-c2cc(N3CCN(C)CC3)cnc2C(C)OC)c2c3cc(ccc31)-c1csc(n1)CC(NC(=O)C1CC1C)C(=O)N1CCCC(N1)C(=O)OCC(C)(C)C2 | 101% |
| NC1c2ccccc2OC12CCN(c1cnc3c(N4CCCc5ncccc54)n[nH]c3n1)CC2 (centres undefined) + CCn1c(-c2cccnc2C(C)OC)c2c3cc(ccc31)N1CCOC(CC(NC(=O)C(C(C)C)N(C)C(=O)C3(F)CCN(C(=O)C#CC(C)(C)N(C)C)CC3)C(=O)N3CCCC(N3)C(=O)OCC(C)(C)C2)C1 | 88.7% |
| O=C(c1ccc(F)c(F)c1Nc1ccc(I)cc1F)N1CC(O)([C@@H]2CCCCN2)C1 + CCn1c(-c2cccnc2C(C)OC)c2c3cc(ccc31)N1CCOC(CC(NC(=O)C(C(C)C)N(C)C(=O)C3(F)CCN(C(=O)C#CC(C)(C)N(C)C)CC3)C(=O)N3CCCC(N3)C(=O)OCC(C)(C)C2)C1 | 22.4% |

* * *

- System: 898857-211-R-J1-PDC complex spheroids, growth % test/control
- ASSAY PROCEDURE: Anticancer human tumor 898857-211-R-J1-PDC cell line growth inhibition [RAS];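 also: spheroids exposed to compound for seven days before readout; 100% = DMSO vehicle control wells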
- RECORDED CONDITIONS: second compound 3.16 µM; first compound 0.1 µM; hits give low values
The label is Satisfied for viability, T/C below 50% and Not satisfied for viability, T/C equal to or exceeding 50%.

| MOLECULE | CLASS LABEL |
| --- | --- |
| CC1(O)CCCC1n1c(=O)c(C(F)F)cc2cnc(NC3CCN(S(C)(=O)=O)CC3)nc21 (centres undefined) + C#Cc1c(F)ccc2cc(O)cc(-c3ncc4c(N5CC6CCC(C5)N6)nc(OCC56CCCN5CC(F)C6)nc4c3F)c12 | Not satisfied |
| CCN1CCN(Cc2ccc(Nc3ncc(F)c(-c4cc(F)c5nc(C)n(C(C)C)c5c4)n3)nc2)CC1 + C#Cc1c(F)ccc2cc(O)cc(-c3ncc4c(N5CC6CCC(C5)N6)nc(OCC56CCCN5CC(F)C6)nc4c3F)c12 | Not satisfied |
| C=CC(=O)N1CCN(c2nc(OCC3CCCN3C)nc3c(F)c(-c4nc(N)cc(C)c4C(F)(F)F)c(Cl)cc23)C(C)C1 (centres undefined) + C#Cc1c(F)ccc2cc(O)cc(-c3ncc4c(N5CC6CCC(C5)N6)nc(OCC56CCCN5CC(F)C6)nc4c3F)c12 | Not satisfied |
| Nc1ccn(C2OC(CO)C(O)C2(F)F)c(=O)n1 (centres undefined) + C#Cc1c(F)ccc2cc(O)cc(-c3ncc4c(N5CC6CCC(C5)N6)nc(OCC56CCCN5CC(F)C6)nc4c3F)c12 | Satisfied |
| NC1c2ccccc2OC12CCN(c1cnc3c(N4CCCc5ncccc54)n[nH]c3n1)CC2 (centres undefined) + C#Cc1c(F)ccc2cc(O)cc(-c3ncc4c(N5CC6CCC(C5)N6)nc(OCC56CCCN5CC(F)C6)nc4c3F)c12 | Not satisfied |
| O=C(c1ccc(F)c(F)c1Nc1ccc(I)cc1F)N1CC(O)([C@@H]2CCCCN2)C1 + C#Cc1c(F)ccc2cc(O)cc(-c3ncc4c(N5CC6CCC(C5)N6)nc(OCC56CCCN5CC(F)C6)nc4c3F)c12 | Satisfied |
| C[C@@H](NC(=O)c1ncnc(N)c1Cl)c1ncc(C(=O)Nc2cc(C(F)(F)F)c(Cl)cn2)s1 + C#Cc1c(F)ccc2cc(O)cc(-c3ncc4c(N5CC6CCC(C5)N6)nc(OCC56CCCN5CC(F)C6)nc4c3F)c12 | Not satisfied |
| CC(C)n1nc(-c2ccc3oc(N)nc3c2)c2c(N)ncnc21 + C#Cc1c(F)ccc2cc(O)cc(-c3ncc4c(N5CC6CCC(C5)N6)nc(OCC56CCCN5CC(F)C6)nc4c3F)c12 | Satisfied |
| CC(Nc1ccc2c(c1)OCCn1cc(N3C(=O)OCC3C(F)F)nc1-2)C(N)=O (centres undefined) + C#Cc1c(F)ccc2cc(O)cc(-c3ncc4c(N5CC6CCC(C5)N6)nc(OCC56CCCN5CC(F)C6)nc4c3F)c12 | Not satisfied |
